All figures here come from PubChem BioAssay (Tox21).

- run_description: qHTS assay to identify small molecule HDAC inhibitors (AID 1259364);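 also: wild-type HCT-116 cells with endogenous class I/II HDAC activity; top concentration of the series differs between compounds; % is scaled to controls: 0 for no effect and ±100 for the full control effect; nearly all actives have a fitted effect of over 45% in size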
- details: HCT-116 HDAC-Glo I/II luminescence, 2 h; series mostly up to 92.4 µM
Inconclusive results are not listed. Active and inactive are the calls of the source. Calls follow the shape of the dose curve; as a rule, active = well fitted inhibition curve with a large enough effect in the repeat runs; inconclusive = weak or mixed curves; inactive = flat fitted curve, though single readings scatter.
recorded_endpoint: activity change, negative = inhibition

See these solved cases before continuing.
| compound | readout_value |
| --- | --- |
| COc1cc(C(C)C)ccc1C | 3.05% [at 19 µM] (inactive) |
| O=C(O)C[C@H](O)C[C@H](O)/C=C/c1c(C2CC2)nc2ccccc2c1-c1ccc(F)cc1 | -0.0181% [at 19 µM] (inactive) |
| COc1cc2ncnc(Nc3cccc(Cl)c3)c2cc1OC | -7.18% [at 19 µM] (inactive) |
| CCCCCCCCCCCCS(=O)(=O)Cl | -0.19% [at 19 µM] (inactive) |
| C=C[Si](C)(C)Cl | 3.64% [at 8.39 µM] (inactive) |

As a next step, examine the compound that follows.
(Q) So what's the measured activity change, negative = inhibition for this one? C=CC(=O)OCCOC1C2CCC1C1CC=CC12 (stereo unspecified)
(A) 5.48% [at 19 µM] (inactive)

----------
- run_description: qHTS assay to test for compound auto fluorescence at 460 nm (blue) in HEK293 cells (AID 720678)
- details: blue autofluorescence 405/460 nm; series mostly up to 46 µM
Active and inactive are the calls of the source. Calls follow the shape of the dose curve; as a rule, active = well fitted curve in the direction sought with a large enough effect in the repeat runs; inconclusive = weak or mixed curves; inactive = flat fitted curve, though single readings scatter.
// one of active, inactive, no free text

| compound | group |
| --- | --- |
| COc1ccc2ccccc2c1 | inactive |
| C/C(=C\C(=O)OCCCCCCCCC(=O)O)C[C@@H]1OC[C@H](C[C@@H]2O[C@H]2[C@@H](C)[C@H](C)O)[C@@H](O)[C@H]1O | inactive |
| COc1cc(NS(C)(=O)=O)ccc1Nc1c2ccccc2nc2ccccc12 | active |

Now examine the next entry.
(Q) Which result was noted for this compound in the test: "CC(C)(O/N=C(\C(=O)N[C@@H]1C(=O)N2C(C(=O)[O-])=C(C[n+]3ccccc3)CS[C@H]12)c1csc(N)n1)C(=O)O"
(A) inactive

----------
- tested_on: Androgen receptor (Homo sapiens) (UniProt P10275)
- Sequence (P10275 whole entry, looked up): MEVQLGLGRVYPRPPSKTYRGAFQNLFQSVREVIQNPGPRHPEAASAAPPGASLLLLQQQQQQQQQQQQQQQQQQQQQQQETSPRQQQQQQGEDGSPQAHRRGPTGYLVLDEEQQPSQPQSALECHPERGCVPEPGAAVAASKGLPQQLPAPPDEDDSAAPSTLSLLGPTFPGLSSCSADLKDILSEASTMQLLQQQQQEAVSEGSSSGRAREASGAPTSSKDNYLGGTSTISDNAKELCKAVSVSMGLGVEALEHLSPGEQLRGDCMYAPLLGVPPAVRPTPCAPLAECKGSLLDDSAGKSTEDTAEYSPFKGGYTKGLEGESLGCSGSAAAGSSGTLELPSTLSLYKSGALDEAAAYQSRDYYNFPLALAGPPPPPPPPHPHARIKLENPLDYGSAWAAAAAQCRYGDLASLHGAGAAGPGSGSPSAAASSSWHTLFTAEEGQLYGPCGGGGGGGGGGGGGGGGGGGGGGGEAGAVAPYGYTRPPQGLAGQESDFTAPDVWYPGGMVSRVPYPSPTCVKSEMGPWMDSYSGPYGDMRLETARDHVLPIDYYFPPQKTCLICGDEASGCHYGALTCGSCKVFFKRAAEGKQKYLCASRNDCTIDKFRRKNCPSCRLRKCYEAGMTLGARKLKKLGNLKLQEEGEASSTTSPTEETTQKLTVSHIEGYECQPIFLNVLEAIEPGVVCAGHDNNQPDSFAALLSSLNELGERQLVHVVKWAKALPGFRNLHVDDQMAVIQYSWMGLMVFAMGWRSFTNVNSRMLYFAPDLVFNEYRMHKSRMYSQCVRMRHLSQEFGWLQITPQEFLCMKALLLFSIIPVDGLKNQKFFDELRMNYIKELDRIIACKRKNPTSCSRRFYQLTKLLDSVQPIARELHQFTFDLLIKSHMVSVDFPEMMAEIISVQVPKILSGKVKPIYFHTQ
- run_description: qHTS assay to identify small molecule antagonists of the androgen receptor (AR) signaling pathway using the MDA cell line in the presence of 0.5 nM R1881 (AID 1259243); also: nearly all actives have a fitted effect of over 50% in size
- details: MDA-kb2 MMTV-luciferase, R1881 0.5 nM, 16 h; series mostly up to 92.4 µM
Results filed as inconclusive are left out. Calls of active or inactive are those of the source. Calls come from the whole dose curve; as a rule, active = well fitted inhibition curve with a large enough effect in the repeat runs; inconclusive = weak or mixed curves; inactive = no such curve, though single readings can be large or run the other way.
// one of y for active, n for inactive, no free text

Solved cases (6 shown):
| compound | tested_on | group |
| --- | --- | --- |
| Oc1ccc2c(c1)CCC2 | Androgen receptor (Homo sapiens) (UniProt P10275) | n |
| CC(=O)[C@]1(O)Cc2c(O)c3c(c(O)c2[C@@H](O[C@H]2C[C@H](N)[C@H](O)[C@H](C)O2)C1)C(=O)c1ccccc1C3=O | Androgen receptor (Homo sapiens) (UniProt P10275) | y |
| O=C(NCc1ncc(C(F)(F)F)cc1Cl)c1c(Cl)cccc1Cl | Androgen receptor (Homo sapiens) (UniProt P10275) | y |
| COC(=O)c1ccc([N+](=O)[O-])cc1 | Androgen receptor (Homo sapiens) (UniProt P10275) | n |
| C=COCCCC | Androgen receptor (Homo sapiens) (UniProt P10275) | n |
| Cc1cccc2c1ccc1ccccc12 | Androgen receptor (Homo sapiens) (UniProt P10275) | y |

(Q) Which result was noted for this compound in the test: "CCOc1nc(F)cc2nc(S(=O)(=O)Nc3c(Cl)cccc3C(=O)OC)nn12"
(A) n

(Q) Which result was noted for this compound in the test: CCc1cccc(C)c1N(C(=O)C(=O)O)C(C)COC (centres undefined)
(A) n

(Q) Which result was noted for this compound in the test: "Clc1cccc(Cl)n1"
(A) n

(Q) Which result was noted for this compound in the test: "CCCCCCCCCCCCCCCCCCNC(=O)OC1CCN(C(=O)OC[C@H](COC(=O)N(Cc2cccc[n+]2CC)C(=O)c2ccccc2OC)OC)CC1"
(A) y

(Q) Which result was noted for this compound in the test: "CCCCCCCCSCc1cc(C)c(O)c(CSCCCCCCCC)c1"
(A) n

(Q) Which result was noted for this compound in the test: "CC/C(=C(/c1ccc(O)cc1)c1ccc(OCCN(C)C)cc1)c1ccccc1"
(A) y

(Q) Which result was noted for this compound in the test: "C=Cc1ccncc1"
(A) n

(Q) Which result was noted for this compound in the test: "Brc1cc(Br)cc(Br)c1"
(A) n

(Q) Which result was noted for this compound in the test: "O=[N+]([O-])c1ccc(CO)cc1"
(A) n

(Q) Which result was noted for this compound in the test: "CC1=CC[C@@H](C(C)(C)O)CC1"
(A) n

(Q) Which result was noted for this compound in the test: "C[C@H]1O[C@@H](O[C@H]2CC[C@@]3(C)[C@H](CC[C@@H]4[C@@H]3C[C@@H](O)[C@]3(C)[C@@H](C5=CC(=O)OC5)CC[C@]43O)C2)C[C@H](O)[C@@H]1O[C@H]1C[C@H](O)[C@H](O[C@H]2C[C@H](O)[C@H](O[C@@H]3O[C@H](CO)[C@@H](O)[C@H](O)[C@H]3O)[C@@H](C)O2)[C@@H](C)O1"
(A) n

(Q) Which result was noted for this compound in the test: "CCN(CCC#N)c1ccc(N=Nc2ccc([N+](=O)[O-])cc2)cc1"
(A) n

(Q) Which result was noted for this compound in the test: CC(C)(C)c1ccc(OC2CCCCC2O)cc1 (centres undefined)
(A) y

(Q) Which result was noted for this compound in the test: "CC(C)(C)c1cc(CCC(=O)OCCSCCOC(=O)CCc2cc(C(C)(C)C)c(O)c(C(C)(C)C)c2)cc(C(C)(C)C)c1O"
(A) n

(Q) Which result was noted for this compound in the test: "CN1CC[C@H](c2c(O)cc(O)c3c(=O)cc(-c4ccccc4Cl)oc23)[C@H](O)C1"
(A) y

(Q) Which result was noted for this compound in the test: "CCN(CC)c1ccc(N=Nc2ccccc2)cc1"
(A) n

(Q) Which result was noted for this compound in the test: "Cc1cc(F)ccc1-c1cc(N2CC[C@@H](O)[C@H]2CO)ncc1N(C)C(=O)C(C)(C)c1cc(C(F)(F)F)cc(C(F)(F)F)c1"
(A) y

(Q) Which result was noted for this compound in the test: C=CC(=O)OCC(Br)CBr (centres undefined)
(A) n
